Reference source for all entries: paper PMC12892976

# Test system: Saccharomyces cerevisiae
# assay: MIC/MFC broth microdilution (CLSI)
# Assay type: cell-based
# experimentalConditions: Saccharomyces cerevisiae S288c
Attribute: MIC / MEC

{"compound": "C[C@@H](c1ncncc1F)[C@](O)(Cn1cncn1)c1ccc(F)cc1F [VOR]", "studySystem": "Saccharomyces cerevisiae", "MIC / MEC": "0.5 µg/mL"}
{"compound": "CCCCCCCCCCn1cc[n+](CC(O)(P(=O)(O)O)P(=O)(O)O)c1 [10-ZOL, Decyl-zoledronate]", "studySystem": "Saccharomyces cerevisiae", "MIC / MEC": "1 µg/mL"}
{"compound": "CC[C@H](C)C[C@H](C)CCCCCCCCC(=O)N[C@H]1C[C@@H](O)[C@@H](NCCN)NC(=O)[C@@H]2[C@@H](O)CCN2C(=O)[C@H]([C@H](O)CCN)NC(=O)[C@H]([C@H](O)[C@@H](O)c2ccc(O)cc2)NC(=O)[C@@H]2C[C@@H](O)CN2C(=O)[C@H]([C@@H](C)O)NC1=O [CAS, caspofungin]", "studySystem": "Saccharomyces cerevisiae", "MIC / MEC": "0.5 µg/mL"}
{"compound": "OC(Cn1cncn1)(Cn1cncn1)c1ccc(F)cc1F [FLC, fluconazole]", "studySystem": "Saccharomyces cerevisiae", "MIC / MEC": "4 µg/mL"}
{"compound": "O=P(O)(O)C(O)(Cn1ccnc1)P(=O)(O)O [ZOL, zoledronate]", "studySystem": "Saccharomyces cerevisiae", "MIC / MEC": "256 µg/mL"}
{"compound": "CCC(C)n1ncn(-c2ccc(N3CCN(c4ccc(OCC5COC(Cn6cncn6)(c6ccc(Cl)cc6Cl)O5)cc4)CC3)cc2)c1=O (stereo not drawn) [ITR, itraconazole]", "studySystem": "Saccharomyces cerevisiae", "MIC / MEC": "0.25 µg/mL"}

====

# Tested on: Trichophyton soudanense
# assay: MIC broth microdilution (CLSI)
# experimentalConditions: Trichophyton soudanense R-167
Attribute: MIC / MEC

{"compound": "CCCCCCCCCCn1cc[n+](CC(O)(P(=O)(O)O)P(=O)(O)O)c1 [10-ZOL, Decyl-zoledronate]", "MIC / MEC / µg/mL": 2}
{"compound": "Nc1nc(=O)[nH]cc1F [5FC, 5-flucytosine]", "MIC / MEC / µg/mL": 64}
{"compound": "CCC(C)n1ncn(-c2ccc(N3CCN(c4ccc(OCC5COC(Cn6cncn6)(c6ccc(Cl)cc6Cl)O5)cc4)CC3)cc2)c1=O (centres unmarked) [ITR, itraconazole]", "MIC / MEC / µg/mL": 0.5}
{"compound": "C[C@@H]1[C@H](O)[C@@H](C)/C=C/C=C/C=C/C=C/C=C/C=C/C=C/[C@H](O[C@@H]2O[C@H](C)[C@@H](O)[C@H](N)[C@@H]2O)C[C@@H]2O[C@](O)(C[C@@H](O)C[C@@H](O)[C@H](O)CC[C@@H](O)C[C@@H](O)CC(=O)O[C@H]1C)C[C@H](O)[C@H]2C(=O)O [AMB, amphotericin B]", "MIC / MEC / µg/mL": 0.5}
{"compound": "CC(=O)N1CCN(c2ccc(OCC3COC(Cn4ccnc4)(c4ccc(Cl)cc4Cl)O3)cc2)CC1 (centres unmarked) [KET, ketoconazole]", "MIC / MEC / µg/mL": 4}

====

# System: Cryptococcus neoformans
# assay: MIC/MFC broth microdilution (CLSI);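 note: susceptibility testing followed the CLSI M27-Ed4 broth microdilution document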
# experimentalConditions: Cryptococcus neoformans H99
readoutName: MIC / MEC (µg/mL)

{"compound": "Nc1nc(=O)[nH]cc1F [5FC, 5-flucytosine]", "studySystem": "Cryptococcus neoformans", "val": 4}
{"compound": "CC(=O)N1CCN(c2ccc(OCC3COC(Cn4ccnc4)(c4ccc(Cl)cc4Cl)O3)cc2)CC1 (stereo not shown) [KET, ketoconazole]", "studySystem": "Cryptococcus neoformans", "val": 0.25}
{"compound": "O=P(O)(O)C(O)(Cn1ccnc1)P(=O)(O)O [ZOL, zoledronate]", "studySystem": "Cryptococcus neoformans", "val": 32}
{"compound": "CCC(C)n1ncn(-c2ccc(N3CCN(c4ccc(OCC5COC(Cn6cncn6)(c6ccc(Cl)cc6Cl)O5)cc4)CC3)cc2)c1=O (stereo not shown) [ITR, itraconazole]", "studySystem": "Cryptococcus neoformans", "val": 0.5}

====

# System: Aspergillus fumigatus
# assay: checkerboard drug interaction (FICI, MICc);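 note: simplified diagonal checkerboard screen pairing antifungals with FPPS inhibitors against Aspergillus fumigatus, with FICI calculated under the Loewe additivity model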
# Type: cell-based
# experimentalConditions: A. fumigatus; FLC:INH combination
Attribute: FICI

{"molecule": "CCCCCCCCCN1CCC[C@H]1C(=O)N[C@@H](CC(=O)OC)C(=O)OC [dmPLA9]", "studySystem": "Aspergillus fumigatus", "FICI": 3}
{"molecule": "CCCCCCCCCCCN1CCC[C@H]1C(=O)N[C@@H](CC(=O)O)C(=O)O [PLA11]", "studySystem": "Aspergillus fumigatus", "FICI": 2}
{"molecule": "CCCCCCCCCN1CCC[C@H]1C(=O)N[C@@H](CC(=O)O)C(=O)O [PLA9]", "studySystem": "Aspergillus fumigatus", "FICI": 2}
{"molecule": "CCCCCCCCCCN1CCC[C@H]1C(=O)N[C@@H](CC(=O)OC)C(=O)OC [dmPLA10]", "studySystem": "Aspergillus fumigatus", "FICI": 1.06}
{"molecule": "O=P(O)(O)C(O)(Cn1ccnc1)P(=O)(O)O [ZOL, zoledronate]", "studySystem": "Aspergillus fumigatus", "FICI": 0.75}

====

# System: Candida auris
# assay: checkerboard drug interaction (FICI, MICc)
# Assay type: cell-based
# experimentalConditions: in combination with 10-ZOL

{"compound": "C[C@@H](c1ncncc1F)[C@](O)(Cn1cncn1)c1ccc(F)cc1F", "antifungal MICc": 0.25}
{"compound": "Nc1nc(=O)[nH]cc1F", "antifungal MICc": 2}
{"compound": "C[C@@H]1[C@H](O)[C@@H](C)/C=C/C=C/C=C/C=C/C=C/C=C/C=C/[C@H](O[C@@H]2O[C@H](C)[C@@H](O)[C@H](N)[C@@H]2O)C[C@@H]2O[C@](O)(C[C@@H](O)C[C@@H](O)[C@H](O)CC[C@@H](O)C[C@@H](O)CC(=O)O[C@H]1C)C[C@H](O)[C@H]2C(=O)O", "antifungal MICc": 1}
{"compound": "OC(Cn1cncn1)(Cn1cncn1)c1ccc(F)cc1F", "antifungal MICc": 64}
{"compound": "CCC(C)n1ncn(-c2ccc(N3CCN(c4ccc(OCC5COC(Cn6cncn6)(c6ccc(Cl)cc6Cl)O5)cc4)CC3)cc2)c1=O (stereo not shown)", "antifungal MICc": 1}
{"compound": "CC(=O)N1CCN(c2ccc(OCC3COC(Cn4ccnc4)(c4ccc(Cl)cc4Cl)O3)cc2)CC1 (stereo not shown)", "antifungal MICc": 1}
{"compound": "CC[C@H](C)C[C@H](C)CCCCCCCCC(=O)N[C@H]1C[C@@H](O)[C@@H](NCCN)NC(=O)[C@@H]2[C@@H](O)CCN2C(=O)[C@H]([C@H](O)CCN)NC(=O)[C@H]([C@H](O)[C@@H](O)c2ccc(O)cc2)NC(=O)[C@@H]2C[C@@H](O)CN2C(=O)[C@H]([C@@H](C)O)NC1=O", "antifungal MICc": 0.5}

====

# Tested on: Microsporum canis
# assay: checkerboard drug interaction (FICI, MICc)
# Format: cell-based
# experimentalConditions: in combination with 10-ZOL
// returns Not fulfilled unless antifungal MICc is strictly below 1, in which case Fulfilled

{"molecule": "CCC(C)n1ncn(-c2ccc(N3CCN(c4ccc(OCC5COC(Cn6cncn6)(c6ccc(Cl)cc6Cl)O5)cc4)CC3)cc2)c1=O (stereo not shown) [ITR, itraconazole]", "studySystem": "Microsporum canis", "assignedClass": "Fulfilled"}
{"molecule": "C[C@@H](c1ncncc1F)[C@](O)(Cn1cncn1)c1ccc(F)cc1F [VOR]", "studySystem": "Microsporum canis", "assignedClass": "Fulfilled"}
{"molecule": "OC(Cn1cncn1)(Cn1cncn1)c1ccc(F)cc1F [FLC, fluconazole]", "studySystem": "Microsporum canis", "assignedClass": "Not fulfilled"}
{"molecule": "Nc1nc(=O)[nH]cc1F [5FC, 5-flucytosine]", "studySystem": "Microsporum canis", "assignedClass": "Not fulfilled"}
{"molecule": "CC[C@H](C)C[C@H](C)CCCCCCCCC(=O)N[C@H]1C[C@@H](O)[C@@H](NCCN)NC(=O)[C@@H]2[C@@H](O)CCN2C(=O)[C@H]([C@H](O)CCN)NC(=O)[C@H]([C@H](O)[C@@H](O)c2ccc(O)cc2)NC(=O)[C@@H]2C[C@@H](O)CN2C(=O)[C@H]([C@@H](C)O)NC1=O [CAS, caspofungin]", "studySystem": "Microsporum canis", "assignedClass": "Fulfilled"}

====

# Test system: Cryptococcus gattii
# assay: MIC broth microdilution (CLSI)
# Format: cell-based
# experimentalConditions: Cryptococcus gattii PNG27
Attribute: MIC / MEC

{"compound": "CC(=O)N1CCN(c2ccc(OCC3COC(Cn4ccnc4)(c4ccc(Cl)cc4Cl)O3)cc2)CC1 (stereo not drawn)", "studySystem": "Cryptococcus gattii", "MIC / MEC [µg/mL]": 0.5}
{"compound": "C[C@@H]1[C@H](O)[C@@H](C)/C=C/C=C/C=C/C=C/C=C/C=C/C=C/[C@H](O[C@@H]2O[C@H](C)[C@@H](O)[C@H](N)[C@@H]2O)C[C@@H]2O[C@](O)(C[C@@H](O)C[C@@H](O)[C@H](O)CC[C@@H](O)C[C@@H](O)CC(=O)O[C@H]1C)C[C@H](O)[C@H]2C(=O)O", "studySystem": "Cryptococcus gattii", "MIC / MEC [µg/mL]": 0.25}
{"compound": "Nc1nc(=O)[nH]cc1F", "studySystem": "Cryptococcus gattii", "MIC / MEC [µg/mL]": 0.5}
